Test system: TGF-β signaling (SBE-SEAP reporter) in MFB-F11 cells
Type: cell-based, mouse
Details: 30 μM; cell reporter assay
Classification field: enter Fulfilled for Relative TGF-β activity, fold change compared with vehicle values not below 3 fold, Not fulfilled for values below it.

In plain terms: is recorded Relative TGF-β activity, fold change compared with vehicle at least 3 fold for CC(C)(CCl)C(=O)N(CC(=O)N(CCc1c[nH]c2ccccc12)Cc1ccccc1)C1CC1 ? Not fulfilled

In plain terms: is recorded Relative TGF-β activity, fold change compared with vehicle at least 3 fold for CC(C)N(CC(=O)N(CCc1c[nH]c2ccccc12)Cc1ccc(N(C)C)cc1)C(=O)C(Cl)Cl ? Fulfilled

In plain terms: is recorded Relative TGF-β activity, fold change compared with vehicle at least 3 fold for COCCN(CC(=O)N(CCc1c[nH]c2ccccc12)Cc1ccc(F)cc1)C(=O)C(C)Cl (stereo not drawn) ? Fulfilled

In plain terms: is recorded Relative TGF-β activity, fold change compared with vehicle at least 3 fold for Cc1ccc(C(=O)N(CC(=O)N(CCc2c[nH]c3ccccc23)Cc2ccc(C(F)(F)F)cc2)C(C)C)cc1[N+](=O)[O-] ? Not fulfilled

In plain terms: is recorded Relative TGF-β activity, fold change compared with vehicle at least 3 fold for COCCCN(CC(=O)N(CCc1c[nH]c2ccccc12)Cc1ccc(C(F)(F)F)cc1)C(=O)C1CC1c1ccccc1 (stereo not drawn) ? Not fulfilled

In plain terms: is recorded Relative TGF-β activity, fold change compared with vehicle at least 3 fold for COCCN(CC(=O)N(CCc1c[nH]c2ccccc12)Cc1ccc(F)cc1)C(=O)c1ccc(Cl)c([N+](=O)[O-])c1 ? Not fulfilled

----------
Test system: TGF-β signaling (SBE-SEAP reporter) in MFB-F11 cells
Type: cell-based, mouse
Conditions: 10 μM; cell reporter assay
Classification field: enter Fulfilled for Relative TGF-β activity, fold change compared with vehicle values not below 2 fold, Not fulfilled for values below it.

In plain terms: is recorded Relative TGF-β activity, fold change compared with vehicle at least 2 fold for CC(C)CN(CC(=O)N(CCc1c[nH]c2ccccc12)Cc1ccccc1)C(=O)c1ccco1 [Compound 13A04] ? Fulfilled

In plain terms: is recorded Relative TGF-β activity, fold change compared with vehicle at least 2 fold for COCCN(CC(=O)N(CCc1c[nH]c2ccccc12)Cc1ccc(OC)c(OC)c1)C(=O)C(Cl)Cl [Compound 24D04] ? Not fulfilled

In plain terms: is recorded Relative TGF-β activity, fold change compared with vehicle at least 2 fold for CCOC(=O)CCC(=O)N(CC(=O)N(CCc1c[nH]c2ccccc12)Cc1ccc(N(C)C)cc1)C(C)C [Compound 23D05] ? Not fulfilled

In plain terms: is recorded Relative TGF-β activity, fold change compared with vehicle at least 2 fold for COCCN(CC(=O)N(CCc1c[nH]c2ccccc12)Cc1ccccc1)C(=O)Cc1cccs1 [Compound 3A] ? Fulfilled

In plain terms: is recorded Relative TGF-β activity, fold change compared with vehicle at least 2 fold for CC(C)(CCl)C(=O)N(CC(=O)N(CCc1c[nH]c2ccccc12)Cc1ccccc1)C1CC1 [Compound 44A04] ? Fulfilled

In plain terms: is recorded Relative TGF-β activity, fold change compared with vehicle at least 2 fold for COCCN(CC(=O)N(CCc1c[nH]c2ccccc12)Cc1ccc(F)cc1)C(=O)C(C)Cl (stereo not shown) [Compound 13F03] ? Not fulfilled

In plain terms: is recorded Relative TGF-β activity, fold change compared with vehicle at least 2 fold for CC(C)N(CC(=O)N(CCc1c[nH]c2ccccc12)Cc1ccc(N(C)C)cc1)C(=O)C(Cl)Cl [Compound 23B08] ? Not fulfilled

Value source: patent US8410138B2
